Biological target: CaFus1
Assay: SPOT peptide array binding signal intensity (averaged, normalized) (arbitrary units (background-subtracted, floor 0; scale differs between SH3 domains)); higher = stronger binding of the SH3 domain to the peptide
Mark t for reported SPOT peptide array binding signal intensity of 200 or greater; mark f for anything smaller.

| BINDER | CATEGORY |
| --- | --- |
| NRARYLPQNPDIIAG | f |
| QLMKNLPKIPLLNDI | t |
| FLIKFTPKFPQSIDH | t |
| TKHKAPPPPPPTAET | f |
| IKKRNKIRLPSGSPE | t |

Q: Kindly determine if SPOT peptide array binding signal intensity recorded for `AGKRRLPLVRFKASD` is above or exactly 200.
Ans: t

Q: Moving on to `STKKPRPPVKSKPKH`
Ans: f
